Target: UniProtKB Q9NYK1
Sequence (Q9NYK1 27-1049): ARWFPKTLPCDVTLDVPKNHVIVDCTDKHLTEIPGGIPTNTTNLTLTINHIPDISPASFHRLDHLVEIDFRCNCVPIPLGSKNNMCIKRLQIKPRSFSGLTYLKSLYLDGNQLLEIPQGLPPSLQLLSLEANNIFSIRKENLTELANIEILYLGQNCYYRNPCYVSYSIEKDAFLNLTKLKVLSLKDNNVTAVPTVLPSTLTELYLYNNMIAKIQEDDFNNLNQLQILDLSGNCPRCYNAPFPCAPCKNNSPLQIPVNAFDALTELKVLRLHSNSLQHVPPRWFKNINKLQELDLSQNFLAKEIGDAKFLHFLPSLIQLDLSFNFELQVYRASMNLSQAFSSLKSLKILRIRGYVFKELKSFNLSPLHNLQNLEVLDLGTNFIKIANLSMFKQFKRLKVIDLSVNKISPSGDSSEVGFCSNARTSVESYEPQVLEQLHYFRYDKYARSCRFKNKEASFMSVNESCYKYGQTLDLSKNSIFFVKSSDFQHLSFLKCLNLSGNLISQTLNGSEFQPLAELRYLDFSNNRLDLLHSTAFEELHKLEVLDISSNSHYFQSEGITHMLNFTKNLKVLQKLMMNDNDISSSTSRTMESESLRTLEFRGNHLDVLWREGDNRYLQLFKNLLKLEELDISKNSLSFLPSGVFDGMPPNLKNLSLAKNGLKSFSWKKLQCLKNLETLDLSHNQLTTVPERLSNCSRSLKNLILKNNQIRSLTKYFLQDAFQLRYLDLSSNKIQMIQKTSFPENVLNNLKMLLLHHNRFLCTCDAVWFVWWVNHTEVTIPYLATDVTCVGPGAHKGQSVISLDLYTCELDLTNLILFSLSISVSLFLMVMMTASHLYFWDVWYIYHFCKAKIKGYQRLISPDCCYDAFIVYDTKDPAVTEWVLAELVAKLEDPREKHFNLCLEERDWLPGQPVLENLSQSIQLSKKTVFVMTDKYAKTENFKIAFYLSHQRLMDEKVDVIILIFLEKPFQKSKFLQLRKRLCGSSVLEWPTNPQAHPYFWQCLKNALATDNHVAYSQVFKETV
Experiment: TLR7 inhibition reporter assay (HEK-Blue cells, SEAP reporter, gardiquimod stimulation)
Settings: HEK-Blue cells overexpressing human TLR7, SEAP reporter, gardiquimod 7.5 μM
Readout name: IC50

Recorded IC50 for Cc1c(-c2[nH]c3ccc(C4CC5CNCC5C4)cc3c2C(C)C)cn2ncnc2c1C (stereo not shown) [Example 506] with UniProtKB Q9NYK1, please?
1 nM

Notebook: pull reported IC50 for UniProtKB Q9NYK1, entry Cc1c(-c2[nH]c3ccc(C4CCC(NC(=O)CN(C)C)CC4)cc3c2C(C)C)cn(C)c(=O)c1C (stereo not shown) [Example 471]
43 nM

Enter reported IC50 observed with UniProtKB Q9NYK1 for COc1cc(-c2[nH]c3ccc(C4CCC(NCC(=O)NC5COC5)CC4)cc3c2C(C)C)cn2ncnc12 (stereo not shown) [Example 164]
1 nM

Request body: readout IC50, system UniProtKB Q9NYK1, query CNCC(=O)NC1CCC(c2ccc3[nH]c(-c4cc(C)nc(C)c4)c(C(C)C)c3c2)CC1 (single isomer, unassigned) [Example 129] . Return the value.
0.3 nM

* * *

Biological target: human TLR9 (Homo sapiens, UniProt Q9NR96)
Sequence (Q9NR96 26-1032): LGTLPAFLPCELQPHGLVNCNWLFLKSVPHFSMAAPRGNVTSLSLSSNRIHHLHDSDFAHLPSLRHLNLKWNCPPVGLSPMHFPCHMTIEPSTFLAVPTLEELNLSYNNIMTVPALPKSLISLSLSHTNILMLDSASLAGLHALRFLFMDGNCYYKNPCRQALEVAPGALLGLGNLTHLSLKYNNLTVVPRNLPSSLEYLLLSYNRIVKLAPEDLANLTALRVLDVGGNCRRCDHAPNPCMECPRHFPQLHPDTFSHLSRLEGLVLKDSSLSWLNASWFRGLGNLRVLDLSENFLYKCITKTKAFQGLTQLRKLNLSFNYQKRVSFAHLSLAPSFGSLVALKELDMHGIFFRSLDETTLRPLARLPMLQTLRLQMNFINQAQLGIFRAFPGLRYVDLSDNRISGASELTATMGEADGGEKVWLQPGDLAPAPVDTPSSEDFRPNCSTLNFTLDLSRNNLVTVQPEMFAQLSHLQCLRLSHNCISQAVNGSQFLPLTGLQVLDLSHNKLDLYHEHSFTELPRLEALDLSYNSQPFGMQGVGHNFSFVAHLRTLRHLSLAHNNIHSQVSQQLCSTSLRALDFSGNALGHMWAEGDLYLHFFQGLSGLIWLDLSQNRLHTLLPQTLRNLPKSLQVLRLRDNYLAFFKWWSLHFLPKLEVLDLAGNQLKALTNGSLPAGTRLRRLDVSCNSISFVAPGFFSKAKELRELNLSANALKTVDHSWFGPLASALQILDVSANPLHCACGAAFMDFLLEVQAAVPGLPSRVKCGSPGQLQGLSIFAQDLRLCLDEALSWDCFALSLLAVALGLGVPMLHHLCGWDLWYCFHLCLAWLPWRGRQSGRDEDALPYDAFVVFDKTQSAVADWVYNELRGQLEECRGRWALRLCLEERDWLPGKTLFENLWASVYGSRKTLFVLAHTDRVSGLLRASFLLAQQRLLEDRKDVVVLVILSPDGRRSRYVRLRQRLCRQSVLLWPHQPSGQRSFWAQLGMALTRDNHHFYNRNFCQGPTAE
Assay: TLR9 inhibition reporter assay (HEK-Blue cells, SEAP reporter, ODN2006 stimulation)
Conditions: HEK-Blue cells overexpressing human TLR9, SEAP reporter, ODN2006 5 nM
pIC50: −log10 of the molar value.
Outcome label depends on pIC50 relative to 5: at/above gives 1.0, below gives 0.0.

Please indicate if the recorded pIC50 for COc1cc(-c2[nH]c3ccc(CCN4CCCC4)cc3c2C(C)C)cn2ncnc12 meets or exceeds 5.
1.0

Is it the case that Cc1cc(-c2[nH]c3ccc(C4CN(CC5(C)COC5)CCO4)cc3c2C(C)C)cn2ncnc12 (stereo not drawn) [Example 292] has pIC50 reaching or exceeding 5?
0.0

Say whether COc1cc(-c2[nH]c3ccc(C4CCC(N5CCCC(F)(F)C5)CC4)cc3c2C(C)C)cn2ncnc12 (stereo not drawn) [Example 35] shows pIC50 of 5 or more.
0.0

// inclusive: pIC50 at least 5? input: Cc1cc(-c2[nH]c3ccc([C@@H]4C[C@H]4C(=O)N(C)C4CCNCC4)cc3c2C(C)C)ccn1
1.0

Quick check, pIC50 >= 5? CNCC(=O)NC1CCC(c2ccc3[nH]c(-c4cn5ncnc5c(C)c4C)c(C(C)C)c3c2)CC1 (stereo not drawn)
1.0

Please indicate if the recorded pIC50 for Cc1c(-c2[nH]c3ccc(C4CC(N)C4)cc3c2C(C)C)cn(C)c(=O)c1C (stereo not drawn) [Example 492] meets or exceeds 5.
1.0

Does pIC50 meet or surpass 5 for COc1cc(-c2[nH]c3ccc(C4CCC(NCC(F)F)CC4)cc3c2C(C)C)cn2ncnc12 (single isomer, unassigned) [Example 67] ?
1.0

Tell me whether pIC50 is at least 5 here: CNC(=O)CN1CCOC(c2ccc3[nH]c(-c4cn5ncnc5c(C)c4C)c(C(C)C)c3c2)C1 (stereo not drawn) [Example 313]
0.0

Check this compound for pIC50 at or above 5: Cc1cc(-c2[nH]c3ccc([C@@H]4C[C@H]4C(=O)N(C)C4CC5CCN4CC5)cc3c2C(C)C)ccn1 (stereo partly drawn) [Example 459]
1.0

hey, is pIC50 for this one >= 5? Cc1cc(-c2[nH]c3ccc(C4CCC(N)CC4)cc3c2C(C)C)cn2ncnc12 (single isomer, unassigned) [Example 4]
1.0

Reported pIC50 at or above 5? Cc1cc(-c2[nH]c3ccc(C4CCC(N(C)C)CC4)cc3c2C(C)C)cc(C)n1 (single isomer, unassigned) [Example 114]
1.0

Has Cc1cc(-c2[nH]c3ccc(C4CN5CCC4CC5)cc3c2C(C)C)cn2ncnc12 (stereo not drawn) [Example 364] a recorded pIC50 greater than or equal to 5?
1.0

Reported pIC50 reaches at least 5 for Cc1c(-c2[nH]c3ccc(C4CC(N(C)CCS(C)(=O)=O)C4)cc3c2C(C)C)cn2ncnc2c1C (stereo not drawn) [Example 586] ?
0.0

* * *

Molecular target: human TLR9 (Homo sapiens, UniProt Q9NR96)
Test: TLR9 inhibition reporter assay (HEK-Blue cells, SEAP reporter, ODN2006 stimulation)
Details: HEK-Blue cells overexpressing human TLR9, SEAP reporter, ODN2006 5 nM
Answer each item with its documented pIC50.
Field pIC50 (float): negative decimal logarithm of the concentration in molar.

Fill blank: measured pIC50 of the compound Cc1cc(-c2[nH]c3ccc(C4CCC(C)(O)CC4)cc3c2C(C)C)cc(C)n1 (single isomer, unassigned) [Example 169] is ____.
4.38

What value of measured pIC50 is listed for Cc1cc(-c2[nH]c3ccc(C4CCC(NC5COC5)CC4)cc3c2C(C)C)cn2ncnc12 (stereo not shown) [Example 57] ?
5.22

Can you share its pIC50? I mean this compound: Cc1c(-c2[nH]c3ccc(C4CN(C(=O)CN(C)C)C4)cc3c2C(C)C)cn2ncnc2c1C [Example 564]
5.14

For CC(C)c1c(-c2ccnc3[nH]ncc23)[nH]c2ccc(CN3CCCCC3)cc12 [Example 443] , what is its reported pIC50?
5.55

I have this compound here, Cc1cc(-c2[nH]c3ccc(C4CN(CC(C)(C)O)CCO4)cc3c2C(C)C)cn2ncnc12 (stereo not shown) [Example 355] , and I need its recorded pIC50.
4.54

Form field: reported pIC50 of Cc1c(-c2[nH]c3ccc(C4CC(N(C)C(=O)CN(C)C)C4)cc3c2C(C)C)cn2ncnc2c1C (stereo not shown) [Example 589]
5.27

These entries and their values trace back to patent US11878975B2.
